The reported measurements were obtained from PubChem BioAssay (NCI).

Tested on: UACC-62 melanoma
Test: NCI-60 one-dose screen, 48 h (100 = growth as untreated, 0 = no growth, -100 = all killed)
Conditions: 10 µM unless noted
This is part of a sample that, as a whole, favours compounds with a hit. Of some 83,000 tested, about 20% had one in any assay. Activity calls are given as the source filed them. The calls were made as follows: active = growth percent below 10; inactive = the rest.
# growth per record follows
Measured Endpoint: growth

| Compound | Subject Of Test | Endpoint Value |
| --- | --- | --- |
| COc1cc2ncnc(Nc3ccc(F)c(Cl)c3)c2cc1OCC(=O)N1CCOCC1 | UACC-62 melanoma | 86.6% (inactive) |
| O=C1OCC2=C1C(c1ccccc1)c1cc3c(cc1N2CCO)OCCO3 (configuration not stated) | UACC-62 melanoma | 14.5% (inactive) |
| CCCCCCCCCCCCCCCCCCOc1ccccc1CC(=O)NCC[N+](C)(C)C | UACC-62 melanoma | 42% (inactive) |
| C=C(C)[C@@H]1CC[C@]2(C(=O)N3CCNCC3)CC[C@]3(C)[C@H](CC[C@@H]4[C@@](C)(CCC(=O)N5CCNCC5)[C@H](C(=C)C)CC[C@]43C)[C@@H]12 | UACC-62 melanoma | 104% (inactive) |
| O=C(Cn1nc(-c2cccc3ccccc23)ccc1=O)NCc1cccc(Cl)c1 | UACC-62 melanoma | 35.2% [50 µM] (inactive) |
| CCCN(CCSSCCNc1nc(N(C)O)nc(N(C)O)n1)c1nc(N(C)O)nc(N(C)O)n1 | UACC-62 melanoma | 81.3% (inactive) |
| CCOC(=O)c1cn2ncnc(Oc3ccc(NC(=O)NC4CC4)c(Cl)c3)c2c1C | UACC-62 melanoma | 77.8% (inactive) |

* * *

System: CAKI-1 renal
Assay: NCI-60 one-dose screen, 48 h (100 = growth as untreated, 0 = no growth, -100 = all killed)
Conditions: 10 µM unless noted
Compounds without any hit were thinned out: in the full panel of roughly 83,000, 20% have a hit.
# growth per record follows

| Molecule | Subject Of Test | growth, % |
| --- | --- | --- |
| Fc1cc2[nH]ncc2c2c3c(c(-c4cn[nH]c4C(F)(F)F)nc12)CCCC3 | CAKI-1 renal | -7.15 |
| CCOC(=O)c1[nH]cc2c1CCc1sc(Nc3ccccn3)nc1-2 | CAKI-1 renal | 82.3 |
| COc1ccc2[nH]cc(-c3nonc3-c3c[nH]c4ccc(Br)cc34)c2c1 | CAKI-1 renal | 24.8 |
| COCCn1cc(-c2csc(-c3c[nH]c4ccccc34)n2)c2cccnc21 | CAKI-1 renal | 56.2 |
| CCCCn1c(NC(C)=O)c(S(=O)(=O)c2ccccc2)c2nc3ccccc3nc21 | CAKI-1 renal | 104 |
| O=C(NCc1ccc(Cn2c(=O)sn(-c3ccccc3)c2=O)cc1)OCc1ccc2cccc(O)c2n1 | CAKI-1 renal | -85.9 |
| CC(O)CNC(Cc1ccccc1)c1ccc2c(c1)OCO2 (centres undefined) | CAKI-1 renal | 93.1 |
| C=C1C(=O)O[C@H]2[C@H]1CC/C(CNC(=O)Cc1c[nH]c3ccccc13)=C\CC[C@@]1(C)O[C@@H]21 | CAKI-1 renal | 14.7 |
| COc1cc2ncnc(Nc3ccc(S(=O)(=O)Nc4nccs4)cc3)c2cc1OCCCN1CCCC1 | CAKI-1 renal | 100 |
| COc1ccc(C(c2cc(OC)c(OC)c(OC)c2)N2CCCCC2)cc1 (centres undefined) | CAKI-1 renal | 29.2 |
| CCN(CC)CCOc1ccc2c(-c3ccccc3)c(-c3ccc(OC)cc3)c(=O)oc2c1 | CAKI-1 renal | 71.9 |
| COc1ccc(CN2C(=O)OC(C)(COC(C)=O)C2=O)cc1 (centres undefined) | CAKI-1 renal | 94.8 |
| Oc1c(I)cc(I)cc1CN(Cc1ccccn1)Cc1ccccn1 | CAKI-1 renal | 0.0911 |
| Cc1nc2sc(C(=O)Nc3cccc4ccccc34)c(N)c2cc1C(=O)c1ccccc1 | CAKI-1 renal | 36.5 |
| Cn1cc(-c2nonc2-c2c[nH]c3ccccc23)c2cc(Br)ccc21 | CAKI-1 renal | 26.3 |
| COCCn1cc(-c2nc(-c3c[nH]c4ncccc34)cs2)c2ccccc21 | CAKI-1 renal | 62.7 |
| COc1ccc(N=C2NN=C(c3c[nH]c4ccccc34)CS2)cc1OC | CAKI-1 renal | 63.8 |
| O=C(Nc1ncc(Cc2ccccc2)s1)c1sc2ccccc2c1Cl | CAKI-1 renal | 29.5 |
| CCOC(=O)/C(=C(/C)NCC(C)C)c1cc(O)c(O)c2c(C)cc(=O)[nH]c12 | CAKI-1 renal | 51.4 |
| O=[N+]([O-])c1ccccc1Sc1ccccc1[N+](=O)[O-] | CAKI-1 renal | -54.5 |
| CCOC(=O)c1cnn(CC(C)O)c1NC(=O)NCc1cccc(F)c1 (centres undefined) | CAKI-1 renal | 97.3 |
| COc1ccc(/C=C2\c3cc(OC)c(OC)c(OC)c3CC[C@@H]2O)cc1F | CAKI-1 renal | 48.4 |
| CC(=O)c1ccc(-n2cc(CN3CCN(c4cc5c(cc4F)c(=O)c(C(=O)O)cn5C4CC4)CC3)nn2)cc1 | CAKI-1 renal | 87.8 |
| S=c1ccnc[nH]1 | CAKI-1 renal | 104 |
